For each entry below, report its Kd value.
TESTED TARGET: 15N-WW domain of Pin1 (tag removed) (UniProt Q13526 5-39, 15N-labelled)
Sequence (Q13526 5-39): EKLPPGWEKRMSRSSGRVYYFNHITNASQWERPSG
ASSAY COMMENT: NMR titration
Non-standard residues stand in square brackets, D forms with d. No end group written: not given here. pS = N[C@@H](COP(=O)(O)O)C(=O)O
Give bare numbers, in µM.

Worked examples, 2 binders total:
EAEAW[pS]PRKLP [IRAK1 phosphopeptide 126-136 (pSer131-P132)]
220
ELGLVPSPASLWPPPP[pS]PAPSSTK [IRAK1 phosphopeptide 157-180 (pSer173-P174)]
260

// switching to the query binder
Consider the binder STFL[pS]PAFPGS [IRAK1 phosphopeptide 140-150 (pSer144-P145)] and give its measured Kd.
120
